The reported measurements were obtained from the Kinase Knowledgebase extract (Sharma et al. 2016).

System tested: PIK3CA, P42336 [Wild Type]
Assay comment: Inhibition of PIK3CA (Wild Type) Kinase Activity
pIC50: −log10 of the molar value.
Reported property: pIC50

CCCCc1c(N2CCOCC2)oc2ccccc2c1=O
4.60
CC(C)c1c(N2CCOCC2)oc2ccccc2c1=O
4.29
Cc1c(N2CCOCC2)oc2ccccc2c1=O
4.48
CCc1c(N2CCOCC2)oc2ccccc2c1=O
4.55

1: CCCc1c(N2CCOCC2)oc2ccccc2c1=O
2: O=c1cc(N2CCOCC2)oc2ccccc12
Parameter metric = pIC50. Return the lower-valued option from 1 and 2 . I would appreciate it if you answered with the label of your choice.
1

====

System tested: PIK3CA (UniProt P42336)
Sequence (P42336 whole entry, looked up): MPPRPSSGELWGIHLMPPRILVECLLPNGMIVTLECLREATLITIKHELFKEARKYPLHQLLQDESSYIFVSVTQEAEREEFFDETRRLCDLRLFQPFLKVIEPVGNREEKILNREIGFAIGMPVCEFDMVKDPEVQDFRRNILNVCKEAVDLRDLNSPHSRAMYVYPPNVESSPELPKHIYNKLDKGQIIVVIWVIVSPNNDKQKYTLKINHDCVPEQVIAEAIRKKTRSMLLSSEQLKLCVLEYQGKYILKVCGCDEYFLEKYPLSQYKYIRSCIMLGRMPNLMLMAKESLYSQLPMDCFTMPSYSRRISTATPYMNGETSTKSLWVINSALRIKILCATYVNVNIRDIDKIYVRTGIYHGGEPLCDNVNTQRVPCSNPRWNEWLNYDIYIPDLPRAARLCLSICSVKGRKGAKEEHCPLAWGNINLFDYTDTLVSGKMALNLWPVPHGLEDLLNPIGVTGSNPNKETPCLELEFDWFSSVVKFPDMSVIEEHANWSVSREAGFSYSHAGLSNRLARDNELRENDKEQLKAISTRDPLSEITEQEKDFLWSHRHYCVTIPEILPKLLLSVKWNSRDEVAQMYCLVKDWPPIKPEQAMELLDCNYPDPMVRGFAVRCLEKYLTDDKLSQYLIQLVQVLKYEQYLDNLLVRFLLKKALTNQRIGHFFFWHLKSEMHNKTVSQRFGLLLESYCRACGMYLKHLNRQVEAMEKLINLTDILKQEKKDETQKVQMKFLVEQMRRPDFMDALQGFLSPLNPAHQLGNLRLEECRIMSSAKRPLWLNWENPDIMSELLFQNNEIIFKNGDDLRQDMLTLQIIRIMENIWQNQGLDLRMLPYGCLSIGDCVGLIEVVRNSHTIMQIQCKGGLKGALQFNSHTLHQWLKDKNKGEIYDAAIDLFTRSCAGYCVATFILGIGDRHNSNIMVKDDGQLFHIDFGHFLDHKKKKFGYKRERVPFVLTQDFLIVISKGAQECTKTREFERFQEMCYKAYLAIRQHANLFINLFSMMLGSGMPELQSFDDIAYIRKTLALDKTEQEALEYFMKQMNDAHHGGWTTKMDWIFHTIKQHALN
pIC50: −log10 of the molar value.
Reported property: pIC50

A: CCCc1c(N2CCOCC2)oc2ccccc2c1=O
B: O=c1cc(N2CCOCC2)oc2ccccc12
Parameter metric = pIC50. Return the lower-valued option from A and B . I would appreciate it if you answered with the label of your choice.
A
(A: 4.17, B: 4.82)

====

System tested: UniProtKB P42336
Reported property: IC50

Field: example entries. Status: answers known.
CC(C)c1c(N2CCOCC2)oc2ccccc2c1=O
> 200 µM
O=c1c(Cc2ccccc2)c(N2CCOCC2)oc2ccccc12
> 200 µM

Turning now to a further record.
Hi! What's the reported IC50 for O=c1c(-c2ccccc2)c(N2CCOCC2)oc2ccccc12 on UniProtKB P42336?
> 200 µM
